Provide the recorded cytotoxicity at 10 µM for the entries that follow.
Assay: Toxicity liver stage against HepG2, at 10uM
Assay type: cell-based
Set-up: test concentration 10 uM, cell line HepG2-A16-CD81EGFP
Details: human, HepG2-A16-CD81EGFP cells; read-out: INHIBITION
Numbers only, in %.

Item under review: Cc1nc(CN2CCC3(CC2)NC(=O)CC3c2ccncc2)cs1 (stereo unspecified) . Reported cytotoxicity at 10 µM?
5.79

For CN(Cc1ccccc1)CC(O)Cn1cnc2c(cnn2C)c1=O (stereo unspecified) then?
1.53

Provide the reported cytotoxicity at 10 µM of each entry below, same order.
1. CN(C(=O)OC(C)(C)C)C1CCN(C(=O)c2ccc(Cl)o2)C1 (stereo unspecified)
2. Cc1nn(C)c2nc(NCCCN3CCCC(C(N)=O)C3)sc12 (stereo unspecified)
3. O=C1CC[C@H]2[C@H](CCN2c2ccccn2)N1CC1CCOCC1
4. O=C(C1CCCC1)N1C[C@@H]2CCN(c3cnccn3)C[C@@H]2C1
5. CCS(=O)(=O)N1CCC(OC)c2ccccc2N(CC(=O)NC)C(=O)C1 (stereo unspecified)

[-42.5, -9.8, -36.4, 3.44, -1.42]

---

Experiment: Toxicity liver stage against HepG2, at 10uM
Type: cell-based
Parameters: test concentration 10 uM, cell line HepG2-A16-CD81EGFP
Conditions: human, HepG2-A16-CD81EGFP cells; read-out: INHIBITION
Quantity name: cytotoxicity at 10 µM (%)
Numbers only, in %.

Provide the reported cytotoxicity at 10 µM of each entry below, same order.
1. CC(C)(CNc1ccccc1S(=O)(=O)C(F)F)N1CCOCC1
2. O=C1CC2(CCCCN2C(=O)c2ccco2)CN1c1cccnc1 (stereo unspecified)
3. O=S(=O)(c1cc(F)ccc1F)N1CCCC1c1ccco1 (stereo unspecified)
4. O=C1COC2(CCN(c3cccc(F)c3)CC2)CN1Cc1ccccn1

[12.2, -1.69, 11.2, -2.94]

Provide the reported cytotoxicity at 10 µM of each entry below, same order.
1. COc1ccc2c(c1)CCCC2CC(=O)NCC(=O)O (stereo unspecified)
2. c1cnc(N2CCC(NCc3cnc(C4CCC4)s3)CC2)nc1
3. COc1ccc(CNC(Cc2ccsc2)c2ncccc2C)cc1OC (stereo unspecified)
4. O=C1CN([C@@H]2CC[C@@H](NS(=O)(=O)c3ccccc3F)[C@H]2O)CCN1
5. CCCn1nc2c(cc1=O)CN(Cc1nc(C)c3ccccc3n1)CC2
6. COCCN(Cc1ccoc1)C(=O)c1c(F)cccc1F
7. Cc1nnc2n1CCN(C(C(=O)NC1CC1)c1ccccc1)C2 (stereo unspecified)

[-4.31, 4.24, 0.735, 1.06, -2.45, 10.6, -2.94]

Provide the reported cytotoxicity at 10 µM of each entry below, same order.
1. Cc1ccccc1C(=O)N1CCCn2nnc(Cn3cccn3)c2C1
2. O=C(Cc1cccs1)N1CC(c2nc(-c3cnccn3)no2)C1
3. CCN(CC)c1ncc(Cl)c(C(=O)NC2CCC(O)CC2)n1 (stereo unspecified)
4. Cc1cc(C(F)(F)F)nn1CCCNC(=O)C1CCN(S(C)(=O)=O)CC1
5. O=C(c1ccc2c(c1)OCO2)N1CCC[C@]2(C[C@H](OCC3CC3)CO2)C1
6. CCCc1noc(CCC(=O)N2CCCC2c2ccncc2)n1 (stereo unspecified)

1: 9.94; 2: -0.921; 3: -43.5; 4: -4.56; 5: 2.34; 6: -2.42

---

Experiment: Toxicity liver stage against HepG2, at 10uM
Type: cell-based
Set-up: test concentration 10 uM, cell line HepG2-A16-CD81EGFP
Conditions: human, HepG2-A16-CD81EGFP cells; read-out: INHIBITION
Quantity name: cytotoxicity at 10 µM (%)
Give bare numbers, in %.

# example entries with known answers
Item under review: `c1ccc(CO[C@H]2CO[C@@]3(CCCN(Cc4cccnc4)C3)C2)nc1` . Reported cytotoxicity at 10 µM?
-6.37

For `O=C(Nc1cccc(CNCc2ccsc2)c1)C1CC1` then?
-10.7

For `O=C(C[C@@H]1COC[C@H]2CN(Cc3ccncc3)C[C@@H]12)N1CCOCC1` then?
6.59

For COCc1cnc2n1CCN(S(=O)(=O)N(C)C)C2C (centres undefined) then?
16.8

For `c1ccc(COc2ccccc2NC2CCOCC2)nc1` then?
2.2

For `Cc1nc(CN2CCC(c3nc4cc(Cl)ccc4o3)CC2)oc1C` then?
-8.56

Provide the reported cytotoxicity at 10 µM of each entry below, same order.
1. Cc1cc(F)c2c(c1)CCCN2C(=O)c1cncc(Br)c1
2. CN1CCN(CCCNC(=O)c2nc3ccccc3c(=O)[nH]2)CC1
3. Cc1nc(C2CCCN(C(=O)c3ccc(N4CCCC4)nc3)C2)no1 (centres undefined)

1. 1.25
2. -5.46
3. -3.06

---

Test: Toxicity liver stage against HepG2, at 10uM
Type: cell-based
Set-up: test concentration 10 uM, cell line HepG2-A16-CD81EGFP
Details: human, HepG2-A16-CD81EGFP cells; read-out: INHIBITION
Provide the recorded cytotoxicity at 10 µM for the entries that follow.
Numbers only, in %.

Item under review: `C[C@H](c1ccc(F)cc1)n1c(C2CCN(C)CC2)n[nH]c1=O` . Reported cytotoxicity at 10 µM?
9.93

For CC(NC(=O)COC1CCCC1)c1nc(-c2ccccc2)c[nH]1 (stereo not given) then?
4.24

For `Cc1cc(CN2C[C@H]3CCC[C@@]3(COCc3csc(C)n3)C2)no1` then?
11.6

For `CC(C)n1cnnc1CN(C)Cc1cnc(-c2cccs2)nc1` then?
8.55

Now for another entry.
Item under review: `CCCN1CCC(CC(=O)NCCc2nc(C)cc(C)n2)CC1` . Reported cytotoxicity at 10 µM?
-13.7

---

Experiment: Toxicity liver stage against HepG2, at 10uM
Assay type: cell-based
Set-up: test concentration 10 uM, cell line HepG2-A16-CD81EGFP
Conditions: human, HepG2-A16-CD81EGFP cells; read-out: INHIBITION
Quantity name: cytotoxicity at 10 µM

# example entries with known answers
Item under review: `CCOc1ccccc1CNC(=O)N1CCC(n2cncn2)CC1` . Reported cytotoxicity at 10 µM?
-0.819%

For `CCOC(=O)c1ccc(CNC(=O)c2ccc(C)nc2)o1` then?
10.6%

For `CN(CCNc1ncc2c(n1)CCN2c1ccccc1)S(C)(=O)=O` then?
0.557%

For `Cn1c(NCCC(=O)N2CCCC2)c(C#N)c(=O)n(C)c1=O` then?
-9.28%

Provide the reported cytotoxicity at 10 µM of each entry below, same order.
1. Cc1cc(CNC(=O)NCc2ccccc2N2CCOCC2)no1
2. O=C(COc1coc(CN2CCCCCC2)cc1=O)c1ccccc1
3. CCn1nc(C)cc1C(=O)NCc1cc(N(C)C)nc2ccccc12
4. COCCNc1cc(-c2ccccc2C(=O)O)c2cc[nH]c2n1
5. CCn1cnnc1C1CCCN(C(=O)COc2ccc(Cl)cc2)C1 (centres undefined)
6. CN(CC(=O)N1CCCC1c1noc(C2CC2)n1)Cc1ccccc1 (centres undefined)
7. C[C@H]1C[C@H]2CN(S(=O)(=O)c3ccc(F)cc3)CC[C@@H]2O1

1: 1.15%; 2: 4.21%; 3: 10.6%; 4: 2.13%; 5: -5.26%; 6: -5.09%; 7: 2.97%

---

Assay: Toxicity liver stage against HepG2, at 10uM
Assay type: cell-based
Set-up: test concentration 10 uM, cell line HepG2-A16-CD81EGFP
Conditions: human, HepG2-A16-CD81EGFP cells; read-out: INHIBITION
Provide the recorded cytotoxicity at 10 µM for the entries that follow.
Answers are plain numbers, in %.

# example entries with known answers
Item under review: `CSCC(=O)N(C)Cc1ccc(N(C)C)cc1` . Reported cytotoxicity at 10 µM?
8.63

For COc1ccccc1Oc1ncccc1CNC(=O)C(C)CN (stereo unspecified) then?
0.884

For `CN(C)Cc1csc(-c2nccn2CCc2cccnc2)c1` then?
-51.2

For CC1CN(CC(=O)NC(=O)NCc2ccccc2)CCO1 (stereo unspecified) then?
-7.07

For `COCC(=O)NCc1cc(=O)n2c(n1)CN(Cc1cccs1)CCC2` then?
-96.5

For `COc1ccc(CN(C)c2nccc(-c3cn(C)nc3C)n2)cc1` then?
13.6

Provide the reported cytotoxicity at 10 µM of each entry below, same order.
1. Cc1ccsc1CN(C)C(=O)c1ccc(N2CCOCC2)c(F)c1
2. Cc1ccc(-c2csc(N)c2C#N)cc1
3. CCN1CC[C@@H]2OC[C@H](C(=O)NCc3cccs3)C[C@@H]2C1
4. COC(=O)c1cc(C(=O)N2CCCC(C)C2)n(-c2ccccc2)n1 (stereo unspecified)

1: 11.1; 2: -1.61; 3: -106; 4: -11.9

Provide the reported cytotoxicity at 10 µM of each entry below, same order.
1. OCC1(O)CCCN(Cc2ccc(-c3cc[nH]n3)s2)CC1 (stereo unspecified)
2. c1cnc(N2CCC3(COCc4cnc(N5CCOCC5)nc43)C2)nc1 (stereo unspecified)
3. O=C(c1ccccc1)N1CCO[C@@H]2CN(c3cnccn3)C[C@@H]2C1

[-141, -1.72, 0.442]

Provide the reported cytotoxicity at 10 µM of each entry below, same order.
1. Cc1cccc(NC(=O)CNC(=O)c2ccccc2F)c1
2. COc1cc(C)ccc1OCCC(=O)N1CCC(N2CC=CC2)C1 (stereo unspecified)
3. CCC(C)NC(=O)c1ccc(CNC(=O)CC(C)(C)C)cc1 (stereo unspecified)

1. -1.24
2. 6.99
3. 10
